molecular target: HLA-A*02:01; test: IEDB peptide-MHC binding, purified MHC/competitive/radioactivity; filed as Kd, often an IC50 or EC50 that approximates it; bounds were set here for any values at or beyond the usual limits of such assays; details: source organism: Homo sapiens
Measured pKd, listed per entry for reference.
Convention used: pKd is expressed as -log10 of the molar concentration.

Looking up NLPIYSEEI , I found its pKd recorded as 7.18

Read the next record carefully.
For ARDPHSGHFV the sequence record lists pKd as 5.57

---

biological target: HLA-A*02:11; assay: IEDB peptide-MHC binding, purified MHC/direct/fluorescence; filed as Kd, often an IC50 or EC50 that approximates it; bounds were set here for any values at or beyond the usual limits of such assays; settings: source organism: Choclo virus
parameter: Kd

Kd for LRYGNVLDV is ≥ 20 µM
